Test system: RICE INDICA EFF
Test Summary: Test C rice paddy
Type: in vivo
Condition Notes: Oryza sativa, 504 h; 0250 G/HA, 21 days; read-out: plant response
pest or weed control at 250 g/ha overview
Express your answer in %, writing the number without its unit.

>  <Compound>
C=C(c1ccccc1Cl)C(O)(Cn1cncn1)c1ccc(F)cc1F (centres unmarked) [Example 35]

>  <Display Unit>
%

>  <pest or weed control at 250 g/ha>
0

$$$$
>  <Compound>
C=C(c1ccccc1Cl)C(O)(Cn1cncn1)c1ccc(Cl)cc1Cl (centres unmarked) [Example 33]

>  <Display Unit>
%

>  <pest or weed control at 250 g/ha>
0

$$$$
>  <Compound>
C=C(c1ccc(Cl)cc1Cl)C(O)(Cn1cncn1)c1ccccc1F (centres unmarked) [Example 107]

>  <Display Unit>
%

>  <pest or weed control at 250 g/ha>
30

$$$$
>  <Compound>
C=C(c1ccc(F)cc1)C(O)(Cn1ncnc1S)c1ccc(F)cc1F (centres unmarked) [Example 1304]

>  <Display Unit>
%

>  <pest or weed control at 250 g/ha>
0

$$$$
>  <Compound>
C=C(c1ccc(Cl)cc1)C(O)(Cn1cncn1)c1ccccc1F (centres unmarked) [Example 669]

>  <Display Unit>
%

>  <pest or weed control at 250 g/ha>
0

$$$$

Request: Answer with the recorded pest or weed control at 250 g/ha of C=C(c1ccccc1)C(O)(Cn1cncn1)c1ccc(Cl)cc1Cl (centres unmarked) [Example 50] only.
Response: 30

Request: Please indicate pest or weed control at 250 g/ha recorded for C=C(c1cccc(F)c1)C(O)(Cn1cncn1)c1ccc(F)cc1F (centres unmarked) [Example 18]
Response: 0

Request: Supply reported pest or weed control at 250 g/ha belonging to this compound: C=C(c1ccc(F)cc1)C(O)(Cn1ncnc1I)c1ccc(F)cc1F (centres unmarked) [Example 1381]
Response: 20
